Molecular target: Lysosomal acid glucosylceramidase (Bos taurus)
Sequence (Q2KHZ8 whole entry): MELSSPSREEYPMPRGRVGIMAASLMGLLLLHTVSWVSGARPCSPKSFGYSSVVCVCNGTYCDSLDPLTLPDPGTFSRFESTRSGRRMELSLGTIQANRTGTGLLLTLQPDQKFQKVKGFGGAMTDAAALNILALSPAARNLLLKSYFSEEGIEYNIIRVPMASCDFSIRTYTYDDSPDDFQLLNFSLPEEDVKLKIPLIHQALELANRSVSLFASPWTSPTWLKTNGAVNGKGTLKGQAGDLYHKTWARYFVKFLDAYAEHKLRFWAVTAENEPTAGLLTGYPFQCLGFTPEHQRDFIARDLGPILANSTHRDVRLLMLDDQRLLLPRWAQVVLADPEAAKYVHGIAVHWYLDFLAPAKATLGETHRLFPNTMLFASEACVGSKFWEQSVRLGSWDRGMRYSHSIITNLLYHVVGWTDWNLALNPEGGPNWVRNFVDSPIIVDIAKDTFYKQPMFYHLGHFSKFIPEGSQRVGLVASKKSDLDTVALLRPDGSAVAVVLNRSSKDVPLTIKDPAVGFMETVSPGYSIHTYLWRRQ
Assay: Inhibition of bovine liver beta-glucosidase assessed as production of 4-methylumbelliferone using 4-methylumbelliferyl beta-D-glucoside as substrate by spectrophotometry
Each entry below lists one item and its recorded IC50 value.
Report the figure in µM without appending any unit label.

Examples with answers:
OC[C@@H]1CNC[C@H](O)[C@H]1O : 611
OC[C@H]1CNC[C@@H](O)[C@@H]1O : 31
OC[C@H]1NCC[C@@H](O)[C@@H]1O : 250

Now examine the next entry.
Incoming: Please report the recorded IC50 for OC[C@H]1NCC[C@H](O)[C@@H]1O [3-epifagomine] .
Outgoing: 5.6
